# Tested on: PPARg:RXRa IVT, anti-PPARg (NR concentration 270 nM, RXRa partner concentration 90 nM)
# assay name: PBM binding z-score (relative to random genomic background probes); higher = stronger binding; sequences stand for … in GC…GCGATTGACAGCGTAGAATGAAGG
experimental endpoint: PBM binding z-score

• TATGCTAGGTCAACGATGGTCAGCTAATCTGCTA = 3.84
• CAAACCAGGTCAAGGTCAAAGTCGGTTTGTGCCA = 7.16
• AGAACGAGGGCAATGCGTTGATAGCACGGGTGGC = 2.57
• AATACAGGGTCTTCGTAGGCCAGAGTACGCACAG = 0.764
• CAAACTAGGTCAAGCGGTCAAAGTCCGCTTCCCG = 8.61

I need PBM binding z-score for every entry listed below, if you could help.
1. ATCTCTTGGTAAAGTTCAGTGAAAGATCGATAGA
2. CTCGAAAGGTCCGTTGAGGTGAGTATACGGATAA
3. CCGACTGGGGCATAAGGTTTCCATAAGCCAGCCC
4. CCTAGTCGGTCAGGAGGTCACACACCGGATATGA
5. CCTCGTAGGACAACAGGAGGTCAGAGCTGCCAGA
6. TCAGACAGGTGAAGGTAACTCAAGTACGCAGTCG
7. CCTACCGGGCCAAAGGTCATTGATTCCAATGCTC

output:
1. 0.63
2. 0.457
3. 2.38
4. 4.85
5. 0.633
6. 0.867
7. 4.7

* * *

# Test system: PPARg:RXRa DBDmut IVT, anti-RXR (DBD mutation: RXRa K156A/R161A, NR concentration 270 nM, RXRa partner concentration 90 nM)
# assay name: PBM binding z-score (relative to random genomic background probes); higher = stronger binding; sequences stand for … in GC…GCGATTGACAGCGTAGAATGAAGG
Provide the reported PBM binding z-score of each item.

Solved entries:
• TAGCCTAGGTCATGGGCCAGTCTACCACGCGAAC = 1.64
• ACTCGGAGGACAAAGGTCAGATCTACGCCAGTGA = 0.776
• ACTATTAGTTGACTCAGGGCAACCGATACGACGC = 0.402
• ACTATTAGTTGAGACGAGGGTAACCGATAGGTTG = 0.111
• TCGAGTAGGTTACCAATGGGGCATTTAGCTTTCT = 3.03

I need PBM binding z-score for every entry listed below, if you could help.
1. ATATGTAGGTTACATCCGGGTGATTCAGGCTATG
2. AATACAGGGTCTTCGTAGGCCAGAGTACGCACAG
3. CCGACTGGGGCAAGGTTACCAAAACGCACAGCCA
4. TCAGACAGGTGAAGATAACTCAGGTACGCAGTCG
5. CCTAGCAGGCCAGAGTCACTCAAGCATTTCGCTT
6. CCGACTGGGGCAAAGGTTCCCATACTCAGTACGA

output:
1. 6.76
2. 0.0875
3. 3.12
4. 2.79
5. 0.697
6. 4.43

input: Dear colleague, I am looking for the recorded PBM binding z-score of the following sequence: ATCTCTAGGTAACCAGGTTCAGTGAATGCCGAAC
output: 3.75

* * *

# Tested on: RARb:RXRa (NR concentration 270 nM, RXRa partner concentration 90 nM)
# assay name: PBM binding z-score (relative to random genomic background probes); higher = stronger binding; sequences stand for … in GC…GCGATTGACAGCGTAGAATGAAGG
Kindly return 1 (yes) if reported PBM binding z-score is no lower than 2; return 0 (no) if it is lower.

Answered cases to consult:
• AGAACGAGGGCAATGAGTTGATAGCCCGGGTGGC = 1 (yes)
• AGTCAGAGTTCACTAGGTAACGTAAGATTCAGCT = 1 (yes)

input: Record TATACAGGGTCAAAGGCCAGGGTACGAATGTCGA ; criterion: PBM binding z-score no lower than 2. Met?
output: 1 (yes)

input: Record CCTACTGGGCCATCAGGTCATTAATATCAACGTT ; criterion: PBM binding z-score no lower than 2. Met?
output: 0 (no)

input: Record GCTTGTAGATCAAGTTTAAGAAAGACTAAGCTAA ; criterion: PBM binding z-score no lower than 2. Met?
output: 0 (no)

input: Record TGAATGTGGTTATAAGATCAGGGAACGTTGCAAA ; criterion: PBM binding z-score no lower than 2. Met?
output: 0 (no)

input: Record TCATATAGGTAATACAGGTGAACGTCGGCATCTA ; criterion: PBM binding z-score no lower than 2. Met?
output: 0 (no)

input: Record CCTTACGGGTCACTAGGTTATAGCACGACGAGCG ; criterion: PBM binding z-score no lower than 2. Met?
output: 1 (yes)

input: Record ATCTCTAGGTAAAGATAGTTCAATGAATGCAAAT ; criterion: PBM binding z-score no lower than 2. Met?
output: 0 (no)

input: Record GATACAGGGTCAGCTAGAGGCCATAGTATGGAAA ; criterion: PBM binding z-score no lower than 2. Met?
output: 1 (yes)

input: Record GGAACGAGGGCGAGTTGATAGCAGAGTTTGATGG ; criterion: PBM binding z-score no lower than 2. Met?
output: 0 (no)

input: Record CGTCAATGTTCAAGGTAACGTAACAGAAAGCAGC ; criterion: PBM binding z-score no lower than 2. Met?
output: 0 (no)

input: Record CAAACTAGGTCAAGCTCAAAGTCGGTTTGTGCCA ; criterion: PBM binding z-score no lower than 2. Met?
output: 1 (yes)

input: Record CCTACTCGGCCACGAAAGGTCATTGATTCAGTGA ; criterion: PBM binding z-score no lower than 2. Met?
output: 1 (yes)

input: Record GGAACGAGGGCAAAGTTGATAGCCTCTGTCGACG ; criterion: PBM binding z-score no lower than 2. Met?
output: 1 (yes)
